Where do these numbers come from? They come from patent US20180215734A1.

assayed-target: Met(h) (Homo sapiens, UniProt P08581)
Sequence (P08581 25-1390): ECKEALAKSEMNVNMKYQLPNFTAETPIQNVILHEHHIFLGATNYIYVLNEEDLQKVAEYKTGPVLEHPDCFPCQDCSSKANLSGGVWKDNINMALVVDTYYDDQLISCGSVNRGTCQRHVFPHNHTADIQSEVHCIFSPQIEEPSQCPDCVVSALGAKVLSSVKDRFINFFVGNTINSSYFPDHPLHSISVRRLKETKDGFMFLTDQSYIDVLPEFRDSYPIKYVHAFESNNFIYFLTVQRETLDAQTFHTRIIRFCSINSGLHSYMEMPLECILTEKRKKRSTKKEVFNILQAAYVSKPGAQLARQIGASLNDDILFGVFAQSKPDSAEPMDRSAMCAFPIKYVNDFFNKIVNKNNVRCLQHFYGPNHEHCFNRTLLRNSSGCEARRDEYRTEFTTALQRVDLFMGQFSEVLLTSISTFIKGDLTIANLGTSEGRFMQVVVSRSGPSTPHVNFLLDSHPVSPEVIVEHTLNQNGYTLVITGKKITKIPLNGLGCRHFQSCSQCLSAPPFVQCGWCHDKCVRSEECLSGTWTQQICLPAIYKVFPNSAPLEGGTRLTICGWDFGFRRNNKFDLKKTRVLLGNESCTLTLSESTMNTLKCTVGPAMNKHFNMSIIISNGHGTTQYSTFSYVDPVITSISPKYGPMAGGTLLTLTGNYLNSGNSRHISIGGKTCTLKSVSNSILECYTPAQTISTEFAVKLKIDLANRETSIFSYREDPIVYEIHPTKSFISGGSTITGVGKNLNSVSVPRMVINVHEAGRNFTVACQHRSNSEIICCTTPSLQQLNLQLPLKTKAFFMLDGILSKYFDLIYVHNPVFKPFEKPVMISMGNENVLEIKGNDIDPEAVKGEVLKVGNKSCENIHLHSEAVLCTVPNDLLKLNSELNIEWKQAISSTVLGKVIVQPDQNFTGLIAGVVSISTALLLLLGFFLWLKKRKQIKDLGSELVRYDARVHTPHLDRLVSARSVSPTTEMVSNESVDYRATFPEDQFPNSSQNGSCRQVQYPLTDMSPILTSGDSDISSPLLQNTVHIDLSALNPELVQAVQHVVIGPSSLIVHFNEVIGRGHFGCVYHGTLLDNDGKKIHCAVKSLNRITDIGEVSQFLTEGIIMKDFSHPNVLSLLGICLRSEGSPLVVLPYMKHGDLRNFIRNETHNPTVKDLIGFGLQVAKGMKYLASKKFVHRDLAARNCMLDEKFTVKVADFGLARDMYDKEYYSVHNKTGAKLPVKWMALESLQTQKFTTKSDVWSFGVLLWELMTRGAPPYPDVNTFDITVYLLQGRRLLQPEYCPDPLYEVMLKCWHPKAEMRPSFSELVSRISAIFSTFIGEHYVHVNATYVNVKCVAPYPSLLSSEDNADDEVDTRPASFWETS
pIC50: −log10 of the molar value.
measured-property: pIC50

In: # pIC50 lookup, item `Cc1cc2c(F)c(Oc3ncnc(Nc4ccc(N5C[C@@H](C)N[C@@H](C)C5)cc4)c3C#N)cc(F)c2[nH]1`
Out: < 6.00

====

assayed-target: hERG (Homo sapiens, UniProt Q12809)
Sequence (Q12809 whole entry): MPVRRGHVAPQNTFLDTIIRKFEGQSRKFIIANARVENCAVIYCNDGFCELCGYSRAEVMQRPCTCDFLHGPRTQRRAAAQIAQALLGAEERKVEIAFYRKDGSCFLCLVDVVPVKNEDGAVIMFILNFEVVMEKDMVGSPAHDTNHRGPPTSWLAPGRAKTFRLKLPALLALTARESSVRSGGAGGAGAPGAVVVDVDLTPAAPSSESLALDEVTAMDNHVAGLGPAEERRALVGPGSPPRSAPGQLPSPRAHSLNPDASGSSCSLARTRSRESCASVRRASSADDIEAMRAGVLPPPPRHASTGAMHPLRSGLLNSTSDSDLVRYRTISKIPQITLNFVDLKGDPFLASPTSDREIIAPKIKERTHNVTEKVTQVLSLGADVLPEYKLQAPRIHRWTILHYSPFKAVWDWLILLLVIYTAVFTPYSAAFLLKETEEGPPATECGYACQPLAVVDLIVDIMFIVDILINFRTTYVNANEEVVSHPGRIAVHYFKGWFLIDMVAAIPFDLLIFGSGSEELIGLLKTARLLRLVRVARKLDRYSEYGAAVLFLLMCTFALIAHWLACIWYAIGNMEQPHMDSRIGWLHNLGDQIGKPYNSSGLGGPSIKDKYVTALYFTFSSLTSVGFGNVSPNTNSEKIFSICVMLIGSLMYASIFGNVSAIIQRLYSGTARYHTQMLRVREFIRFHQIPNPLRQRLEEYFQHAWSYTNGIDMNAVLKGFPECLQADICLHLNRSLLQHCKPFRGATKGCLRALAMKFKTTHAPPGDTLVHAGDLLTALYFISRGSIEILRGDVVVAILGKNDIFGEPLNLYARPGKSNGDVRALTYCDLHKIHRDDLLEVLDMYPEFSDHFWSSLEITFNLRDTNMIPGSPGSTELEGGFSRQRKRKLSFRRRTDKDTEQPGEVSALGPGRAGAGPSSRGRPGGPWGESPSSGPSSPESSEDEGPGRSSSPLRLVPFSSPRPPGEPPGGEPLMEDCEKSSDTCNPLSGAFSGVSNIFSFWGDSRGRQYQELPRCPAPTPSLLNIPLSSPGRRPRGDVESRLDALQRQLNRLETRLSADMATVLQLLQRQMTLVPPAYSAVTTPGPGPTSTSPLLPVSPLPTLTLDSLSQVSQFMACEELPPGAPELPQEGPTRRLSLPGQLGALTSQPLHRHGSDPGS
measured-property: IC50

In: # IC50 lookup, item `Cc1cc2c(F)c(Oc3ncnc(Nc4ccc(N5C[C@@H](C)N[C@@H](C)C5)cc4)c3C#N)cc(F)c2[nH]1`
Out: > 30 µM

====

assayed-target: ABL(h) (Homo sapiens)
pIC50: −log10 of the molar value.
measured-property: pIC50

In: # pIC50 lookup, item `Cc1cc2c(F)c(Oc3ncnc(Nc4ccc(N5C[C@@H](C)N[C@@H](C)C5)cc4)c3C#N)cc(F)c2[nH]1`
Out: < 6.00

====

assayed-target: FGFR3 (Homo sapiens)
Construct: expressed in transfected cells; host or cells: BaF3
Sequence (P22607 23-806, species assumed): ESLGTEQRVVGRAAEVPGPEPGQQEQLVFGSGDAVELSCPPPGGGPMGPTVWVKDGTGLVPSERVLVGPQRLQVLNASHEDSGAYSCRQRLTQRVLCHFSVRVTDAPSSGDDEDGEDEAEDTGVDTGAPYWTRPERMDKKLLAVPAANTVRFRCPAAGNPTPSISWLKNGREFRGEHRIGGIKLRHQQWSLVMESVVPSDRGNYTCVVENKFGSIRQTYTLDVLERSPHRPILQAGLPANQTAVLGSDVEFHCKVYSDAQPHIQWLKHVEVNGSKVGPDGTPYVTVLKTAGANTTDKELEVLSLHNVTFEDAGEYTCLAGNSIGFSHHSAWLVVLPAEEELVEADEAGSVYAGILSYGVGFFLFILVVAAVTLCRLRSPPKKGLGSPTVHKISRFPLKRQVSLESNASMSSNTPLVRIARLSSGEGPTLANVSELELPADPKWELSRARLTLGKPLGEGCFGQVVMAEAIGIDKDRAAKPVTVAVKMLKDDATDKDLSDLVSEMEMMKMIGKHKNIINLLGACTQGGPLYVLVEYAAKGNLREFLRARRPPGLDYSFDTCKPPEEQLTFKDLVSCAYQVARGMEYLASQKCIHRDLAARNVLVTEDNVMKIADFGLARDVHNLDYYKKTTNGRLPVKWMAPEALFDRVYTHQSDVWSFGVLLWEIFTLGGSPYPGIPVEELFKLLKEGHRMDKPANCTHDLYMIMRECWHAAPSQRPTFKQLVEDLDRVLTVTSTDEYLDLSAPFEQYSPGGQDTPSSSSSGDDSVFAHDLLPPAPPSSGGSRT
test: BaF3 cells engineered for expression of FGFR3
Assay type: cell-based
assay-context: read-out: IC5o(nM) FGFR3
Description: In FIG. 1 these kinases are from the fibroblast growth factor receptor class of kinases (FGFR1-FGFR4). Compound 19 kinase inhibitory activity FGFR1-FGFR4 are also depicted in Table 5.
measured-property: IC50 (nM)
Report as a plain number; the unit nM is understood.

In: # IC50 lookup, item Cc1cc2c(F)c(Oc3ncnc(Nc4ccc(N5C[C@@H](C)N[C@@H](C)C5)cc4)c3C#N)cc(F)c2[nH]1 [Compound 19]
Out: 32.6

====

pIC50: −log10 of the molar value.
measured-property: pIC50

In: Short answer please: pIC50, Lck(h) (Homo sapiens), entry `Cc1cc2c(F)c(Oc3ncnc(Nc4ccc(N5C[C@@H](C)N[C@@H](C)C5)cc4)c3C#N)cc(F)c2[nH]1`
Out: < 6.00

====

assayed-target: KDR(h) (Homo sapiens, UniProt P35968)
Sequence (P35968 20-1356): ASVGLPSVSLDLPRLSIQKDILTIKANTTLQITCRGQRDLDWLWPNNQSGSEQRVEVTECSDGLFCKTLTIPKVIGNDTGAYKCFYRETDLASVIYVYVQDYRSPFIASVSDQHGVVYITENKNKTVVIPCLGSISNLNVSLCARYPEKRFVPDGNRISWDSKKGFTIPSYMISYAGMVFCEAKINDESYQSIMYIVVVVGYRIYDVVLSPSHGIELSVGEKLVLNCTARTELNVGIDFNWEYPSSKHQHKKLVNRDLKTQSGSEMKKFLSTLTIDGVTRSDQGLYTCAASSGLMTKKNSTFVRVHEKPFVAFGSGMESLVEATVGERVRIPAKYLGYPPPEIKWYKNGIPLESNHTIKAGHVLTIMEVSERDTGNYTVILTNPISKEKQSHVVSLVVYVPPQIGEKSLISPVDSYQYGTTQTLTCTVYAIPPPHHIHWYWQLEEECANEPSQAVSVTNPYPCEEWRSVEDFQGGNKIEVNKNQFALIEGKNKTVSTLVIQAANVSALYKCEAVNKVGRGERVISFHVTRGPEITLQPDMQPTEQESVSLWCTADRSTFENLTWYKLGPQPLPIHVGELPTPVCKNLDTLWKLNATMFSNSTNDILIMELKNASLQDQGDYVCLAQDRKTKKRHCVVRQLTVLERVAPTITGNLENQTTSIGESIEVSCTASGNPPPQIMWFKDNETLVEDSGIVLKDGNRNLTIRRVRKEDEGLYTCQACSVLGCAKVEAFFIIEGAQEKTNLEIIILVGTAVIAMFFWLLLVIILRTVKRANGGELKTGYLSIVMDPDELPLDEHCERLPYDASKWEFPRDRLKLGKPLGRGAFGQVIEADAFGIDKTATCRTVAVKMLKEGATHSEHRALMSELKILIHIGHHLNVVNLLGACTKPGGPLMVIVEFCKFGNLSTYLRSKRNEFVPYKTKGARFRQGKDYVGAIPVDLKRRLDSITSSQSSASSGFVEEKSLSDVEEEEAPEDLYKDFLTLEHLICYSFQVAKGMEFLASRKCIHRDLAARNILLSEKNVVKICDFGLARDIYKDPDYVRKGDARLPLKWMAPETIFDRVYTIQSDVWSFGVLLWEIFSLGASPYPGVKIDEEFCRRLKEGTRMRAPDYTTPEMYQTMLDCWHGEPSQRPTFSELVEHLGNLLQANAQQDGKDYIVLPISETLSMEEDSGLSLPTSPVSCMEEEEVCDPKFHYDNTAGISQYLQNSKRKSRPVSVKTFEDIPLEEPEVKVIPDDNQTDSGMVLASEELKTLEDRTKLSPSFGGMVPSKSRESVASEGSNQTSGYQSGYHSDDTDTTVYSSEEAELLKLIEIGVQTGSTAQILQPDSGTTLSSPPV
test: Kinase assay, KDR(h)
Type: biochemical
measured-property: inhibition at 1 µM
Give me the value, and tack the unit on after it.

In: Short answer please: inhibition at 1 µM, KDR(h) (Homo sapiens, UniProt P35968), entry Cc1cc2c(F)c(Oc3ncnc(Nc4ccc(Cl)cc4)c3C#N)cc(F)c2[nH]1 [Compound 40]
Out: 20%

In: Short answer please: inhibition at 1 µM, KDR(h) (Homo sapiens, UniProt P35968), entry Cc1cc2c(F)c(Oc3ncnc(Nc4ccc(N5CCC(N(C)C)CC5)cc4)c3C#N)ccc2[nH]1 [Compound 11]
Out: 96%

In: Short answer please: inhibition at 1 µM, KDR(h) (Homo sapiens, UniProt P35968), entry CCN1CCN(c2ccc(Nc3ncnc(Oc4ccc5[nH]c(C)cc5c4F)c3C#N)cc2F)CC1 [Compound 8]
Out: 96%

====

Please go through the items and note down their inhibition at 1 µM.
assayed-target: KDR(h) (Homo sapiens, UniProt P35968)
test: Kinase assay, KDR(h)
Format: biochemical
Give me the value, and tack the unit on after it.

In: # inhibition at 1 µM lookup, item Cc1cc2c(F)c(Oc3ncnc(Nc4ccc(C)c(S(N)(=O)=O)c4)c3C#N)ccc2[nH]1 [Compound 15]
Out: 96%

In: # inhibition at 1 µM lookup, item CCN1CCN(c2ccc(Nc3ncnc(Oc4cc(F)c5[nH]c(C)cc5c4F)c3C#N)cc2)CC1C (stereo not drawn) [Compound 48]
Out: 84%

In: # inhibition at 1 µM lookup, item CC(=O)Nc1ccc(Nc2ncnc(Oc3ccc4[nH]c(C)cc4c3F)c2C#N)cc1 [Compound 25]
Out: 96%

In: # inhibition at 1 µM lookup, item Cc1cc2c(F)c(Oc3ncnc(Nc4ccc(N5CCNC(=O)C5)cc4)c3C#N)ccc2[nH]1 [Compound 27]
Out: 97%

In: # inhibition at 1 µM lookup, item Cc1cc2c(F)c(Oc3ncnc(Nc4ccccc4O)c3C#N)cc(F)c2[nH]1 [Compound 43]
Out: 76%

In: # inhibition at 1 µM lookup, item Cc1cc2c(F)c(Oc3ncnc(Nc4ccc(N5C[C@@H](C)N(C)[C@@H](C)C5)cc4)c3C#N)cc(F)c2[nH]1 [Compound 45]
Out: 73%

In: # inhibition at 1 µM lookup, item CCN1CCN(c2cccc(Nc3ncnc(Oc4ccc5[nH]c(C)cc5c4F)c3C#N)c2)CC1 [Compound 22]
Out: 96%

In: # inhibition at 1 µM lookup, item Cc1cc2c(F)c(Oc3ncnc(Nc4ccccc4)c3C#N)ccc2[nH]1 [Compound 23]
Out: 96%

In: # inhibition at 1 µM lookup, item CCN1CCN(c2ccc(Nc3ncnc(Oc4ccc5[nH]c(C)cc5c4F)c3C(F)F)cc2)CC1 [Compound 5]
Out: 9%
